# assayed.target: CBP-BRD (Homo sapiens, UniProt Q92793)
# Sequence (Q92793 1085-1192 limits assumed): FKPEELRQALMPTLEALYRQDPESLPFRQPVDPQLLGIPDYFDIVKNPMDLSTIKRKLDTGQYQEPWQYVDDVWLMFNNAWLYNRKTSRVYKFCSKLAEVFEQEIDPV
# assay.info: BROMOscan ligand binding site-directed competition assay, CBP
# conditions.used: BROMOscan
experimental.readout: Kd (nM)

Check out these entries, answers already filled in.
# compound, Kd (nM)
data = [
    ("Cc1cc2c(NC(=O)c3cc(NC(=O)CCCCCCCCCCNc4cccc5c4C(=O)N(C4CCC(=O)NC4=O)C5=O)cc(-c4ccn(C)n4)c3)cccc2nn1 (stereo not drawn)", 1300),
    ("Cc1cc2c(NC(=O)c3cc(NC(=O)CCCCCCCCCCCNc4cccc5c4C(=O)N(C4CCC(=O)NC4=O)C5=O)cc(-c4ccn(C)n4)c3)cccc2nn1 (stereo not drawn)", 3300),
    ("CC(=O)Nc1cc(C(=O)Nc2cccc3nnc(C)cc23)cc(-c2ccn(C)n2)c1", 29),
    ("Cc1cc2c(NC(=O)c3cc(NC(=O)CCCCCCCN4CCN(c5ccc6c(c5)C(=O)N(C5CCC(=O)NC5=O)C6=O)CC4)cc(-c4ccn(C)n4)c3)cccc2nn1 (stereo not drawn)", 28),
]

1: Cc1cc2c(NC(=O)c3cc(NC(=O)c4ccco4)cc(-c4ccn(C)n4)c3)cccc2nn1
2: CC(=O)Nc1cc(NC(=O)c2ccco2)cc(C(=O)Nc2cccc3nnc(C)cc23)c1
Compare 1 and 2 and name the one whose reported Kd is smaller. Answer = label.
1
(1: 8.7 nM, 2: 19 nM)
